# normalized RNA/DNA level with ligand (log10) annotations
B1: library; a variant is named by its letters at N, in order (parent)
chain: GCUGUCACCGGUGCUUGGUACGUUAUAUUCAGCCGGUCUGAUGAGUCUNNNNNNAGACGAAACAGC

- Variants of: B1
- assay method text: normalized RNA/DNA level with ligand (relative to sTRSVctl = 100) (log10 (% of sTRSVctl)); HEK293T overexpressing SLC46A1; ligand concentration (+) RNA-Seq: 6 mM; higher = less ribozyme self-cleavage, higher mRNA level
- experimental setup: with (6R,S)-folinic acid; ligand present: yes
Enter a number only.

Known normalized RNA/DNA level with ligand (log10) results, listed for orientation:
1) GCCGAC : 2.04
2) GUGUCU : 1.98
3) UAAACG : 1.95
4) CCUAAA : 2.01

Please fill in: normalized RNA/DNA level with ligand (log10) reported for CUGUUA = 2.04

Value of measured normalized RNA/DNA level with ligand (log10) for the entry UUCCAG : 1.99

The variant identified as CGGUGC registered its normalized RNA/DNA level with ligand (log10) at 2.01

Briefly, normalized RNA/DNA level with ligand (log10) measured for AUAUGU : 2.02

Value of normalized RNA/DNA level with ligand (log10) reported for the variant GCAUAC is 2.03

Data point: ACCCGC ; normalized RNA/DNA level with ligand (log10) = 2.03

Record summary for CUUACC : reported normalized RNA/DNA level with ligand (log10) = 2

FYI, the data here is from the supplement of paper PMC6757056.
